Target: hERG potassium ion channel (Homo sapiens)
Sequence (Q12809 whole entry): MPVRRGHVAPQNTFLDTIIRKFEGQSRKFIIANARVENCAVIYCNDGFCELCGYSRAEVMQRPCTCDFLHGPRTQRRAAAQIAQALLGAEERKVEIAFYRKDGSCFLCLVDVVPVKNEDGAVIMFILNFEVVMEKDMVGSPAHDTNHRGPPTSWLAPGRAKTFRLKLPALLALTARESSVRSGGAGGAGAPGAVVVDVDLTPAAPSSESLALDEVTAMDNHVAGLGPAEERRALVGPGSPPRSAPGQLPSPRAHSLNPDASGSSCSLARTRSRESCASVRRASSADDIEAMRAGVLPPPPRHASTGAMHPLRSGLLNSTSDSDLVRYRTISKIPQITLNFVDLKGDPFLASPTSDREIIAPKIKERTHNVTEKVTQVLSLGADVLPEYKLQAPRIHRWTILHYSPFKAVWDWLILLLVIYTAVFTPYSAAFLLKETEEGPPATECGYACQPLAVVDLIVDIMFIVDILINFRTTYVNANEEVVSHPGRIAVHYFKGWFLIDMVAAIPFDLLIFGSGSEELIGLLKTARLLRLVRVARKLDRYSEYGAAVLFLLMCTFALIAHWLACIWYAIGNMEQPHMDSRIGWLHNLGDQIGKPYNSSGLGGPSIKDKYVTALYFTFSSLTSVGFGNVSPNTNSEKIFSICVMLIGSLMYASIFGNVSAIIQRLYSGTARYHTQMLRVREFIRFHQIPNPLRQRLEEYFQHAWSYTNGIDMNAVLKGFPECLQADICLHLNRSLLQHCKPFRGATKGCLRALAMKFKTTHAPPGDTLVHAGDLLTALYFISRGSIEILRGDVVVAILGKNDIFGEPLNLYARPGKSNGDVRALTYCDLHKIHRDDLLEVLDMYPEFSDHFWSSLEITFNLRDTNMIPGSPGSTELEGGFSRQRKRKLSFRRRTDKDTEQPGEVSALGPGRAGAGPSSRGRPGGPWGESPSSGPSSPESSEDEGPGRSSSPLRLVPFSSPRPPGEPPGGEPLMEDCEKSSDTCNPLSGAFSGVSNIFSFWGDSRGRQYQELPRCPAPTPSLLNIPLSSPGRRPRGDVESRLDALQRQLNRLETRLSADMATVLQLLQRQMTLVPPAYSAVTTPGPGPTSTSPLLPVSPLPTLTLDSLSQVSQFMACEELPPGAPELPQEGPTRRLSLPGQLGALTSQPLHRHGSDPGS
Assay: cell-based
measure: pIC50
Please note pIC50 is a logarithmic value: minus log10 of concentration in mol/L. Answer with that number alone.

Entry under test: CCCCCCCCCCn1cc(CCC(N)(CO)CO)nn1 . Its pIC50 was 4.89

Recorded values, source patent US11957665B1.
